measuredTarget: ScNbp2
protocolSummary: SPOT peptide array binding signal intensity (averaged, normalized) (arbitrary units (background-subtracted, floor 0; scale differs between SH3 domains)); higher = stronger binding of the SH3 domain to the peptide
Label fulfilled for high-side SPOT peptide array binding signal intensity (at or above 300) and not fulfilled for low-side SPOT peptide array binding signal intensity (below it).

These recorded examples may help you get a feel for the data.
RSRRSSFAYPQQVAI    not fulfilled
PPIPIVPSSPAPPLP    not fulfilled
HRRRRVFSIPSLKSI    fulfilled

query: Could you verify whether the entry "RPVPPPPPMRTTTEG" shows SPOT peptide array binding signal intensity of no less than 300?
result: fulfilled

query: Decide: SPOT peptide array binding signal intensity of "DGNEEKPLLPTRPNK" >= 300?
result: not fulfilled

query: Could you verify whether the entry "KWVRRPKLMTPLTFS" shows SPOT peptide array binding signal intensity of no less than 300?
result: fulfilled

query: Is reported SPOT peptide array binding signal intensity greater than or equal to 300 here: "PSTMDFPKLPSFQNS"
result: not fulfilled

query: Confirm if SPOT peptide array binding signal intensity reported for the binder "TTNRGPPPLPPRANV" is 300 or above.
result: not fulfilled

query: Hello, I need to know if "RNNRPVPPPPPMRTT" has measured SPOT peptide array binding signal intensity not below 300. Thanks!
result: fulfilled

query: Form field: SPOT peptide array binding signal intensity at least 300? Entry: "PKMLPIPSKPTLFDL"
result: not fulfilled

query: Decide: is the reported value of SPOT peptide array binding signal intensity for "YRRKSIPFAPHQITA" equal to or greater than 300?
result: not fulfilled

query: For this binder, is measured SPOT peptide array binding signal intensity 300 or higher? "QPPLPSSAPPIPTSH"
result: not fulfilled

query: Threshold query (SPOT peptide array binding signal intensity >= 300) on "FPGKKSPRLPHRNKK"
result: not fulfilled

query: Item "QGYPRQPQRPQRYHP" with SPOT peptide array binding signal intensity of 300 or above?
result: not fulfilled

query: Is it the case that "QQEQNTPPLPPKPKS" has SPOT peptide array binding signal intensity reaching or exceeding 300?
result: not fulfilled

query: Hello, I need to know if "RVRKTHVPASKRPSG" has measured SPOT peptide array binding signal intensity not below 300. Thanks!
result: not fulfilled

query: Answer whether SPOT peptide array binding signal intensity of "KIRRSSLMIPNPQQF" is greater than or equal to 300.
result: not fulfilled

query: API: above_or_equal(metric=SPOT peptide array binding signal intensity, cutoff=300) for item "GLRRARYKFPGQQKI"
result: not fulfilled

query: Is the recorded value of SPOT peptide array binding signal intensity equal to or greater than 300 for this binder? "NVLRKILEIPLHSFS"
result: not fulfilled

query: Is SPOT peptide array binding signal intensity for "PKRRAPPPVPKKPSS" at or above 300?
result: fulfilled

query: Has "NPTKSPPPPPSPSTM" a recorded SPOT peptide array binding signal intensity greater than or equal to 300?
result: not fulfilled

query: I'd appreciate it if you could say whether "DRIRMFIRFPKFLLE" has SPOT peptide array binding signal intensity at least equal to 300.
result: fulfilled

query: Hi team, for "QRKSLRRPTLSKPAV" , is the recorded SPOT peptide array binding signal intensity at or above 300?
result: not fulfilled

query: Is reported SPOT peptide array binding signal intensity greater than or equal to 300 here: "KTRLRPAFIQQLWSS"
result: not fulfilled

query: Threshold query (SPOT peptide array binding signal intensity >= 300) on "DTFLPPPPPPPSNFE"
result: not fulfilled

query: In plain terms: is recorded SPOT peptide array binding signal intensity at least 300 for "RKNRAPPQRPRFNRE" ?
result: fulfilled

query: Textbook exercise: given the entry "DDEDVPPQLPTRTKS" , state whether its SPOT peptide array binding signal intensity is greater than or equal to 300.
result: not fulfilled

query: Answer whether SPOT peptide array binding signal intensity of "PIVPSSPAPPLPLSG" is greater than or equal to 300.
result: not fulfilled
